Target: Monoamine transporters; Norepininephrine & dopamine (Rattus norvegicus) (UniProt P23977+Q9WTR4)
Assay: Uptake ratio at norepinephrine to dopamine transporters from rat brain
Ratio under 0.1 gets fulfilled, anything at or over 0.1 gets not fulfilled.

input: Record COC(=O)C1C2CCC3CCC1N(C/C2=C\c1ccc(-c2ccc(Cl)cc2)cc1)C3 (centres undefined) : is its Ratio strictly below 0.1?
output: not fulfilled

input: Record COC(=O)C1C2CCC3CCC1N(C/C2=C\c1ccc(-c2ccc(C#N)cc2)cc1)C3 (centres undefined) : is its Ratio strictly below 0.1?
output: not fulfilled

input: Record COC(=O)C1C2CCC3CCC1N(C/C2=C\c1ccc(-c2ccc(C(F)(F)F)cc2)cc1)C3 (centres undefined) : is its Ratio strictly below 0.1?
output: not fulfilled

input: Record COC(=O)C1C2CCC3CCC1N(C/C2=C\c1ccc(-c2ccc(I)cc2)cc1)C3 (centres undefined) : is its Ratio strictly below 0.1?
output: not fulfilled

input: Record COC(=O)C1C2CCC3CCC1N(C/C2=C\c1ccc(-c2ccc(C)cc2)cc1)C3 (centres undefined) : is its Ratio strictly below 0.1?
output: not fulfilled

input: Record COC(=O)C1C2CCC3CCC1N(C/C2=C\c1ccc(-c2ccco2)cc1)C3 (centres undefined) : is its Ratio strictly below 0.1?
output: not fulfilled

input: Record COC(=O)C1C2CCC3CCC1N(C/C2=C\c1ccc(-c2ccsc2)cc1)C3 (centres undefined) : is its Ratio strictly below 0.1?
output: fulfilled

input: Record COC(=O)C1C2CCC3CCC1N(C/C2=C\c1ccc(-c2ccc(OC)cc2)cc1)C3 (centres undefined) : is its Ratio strictly below 0.1?
output: fulfilled

input: Record COC(=O)C1C2CCC3CCC1N(C/C2=C\c1ccc(-c2ccccc2)s1)C3 (centres undefined) : is its Ratio strictly below 0.1?
output: fulfilled

###

Molecular target: Sodium-dependent dopamine transporter (Rattus norvegicus, UniProt P23977)
Sequence (P23977 whole entry): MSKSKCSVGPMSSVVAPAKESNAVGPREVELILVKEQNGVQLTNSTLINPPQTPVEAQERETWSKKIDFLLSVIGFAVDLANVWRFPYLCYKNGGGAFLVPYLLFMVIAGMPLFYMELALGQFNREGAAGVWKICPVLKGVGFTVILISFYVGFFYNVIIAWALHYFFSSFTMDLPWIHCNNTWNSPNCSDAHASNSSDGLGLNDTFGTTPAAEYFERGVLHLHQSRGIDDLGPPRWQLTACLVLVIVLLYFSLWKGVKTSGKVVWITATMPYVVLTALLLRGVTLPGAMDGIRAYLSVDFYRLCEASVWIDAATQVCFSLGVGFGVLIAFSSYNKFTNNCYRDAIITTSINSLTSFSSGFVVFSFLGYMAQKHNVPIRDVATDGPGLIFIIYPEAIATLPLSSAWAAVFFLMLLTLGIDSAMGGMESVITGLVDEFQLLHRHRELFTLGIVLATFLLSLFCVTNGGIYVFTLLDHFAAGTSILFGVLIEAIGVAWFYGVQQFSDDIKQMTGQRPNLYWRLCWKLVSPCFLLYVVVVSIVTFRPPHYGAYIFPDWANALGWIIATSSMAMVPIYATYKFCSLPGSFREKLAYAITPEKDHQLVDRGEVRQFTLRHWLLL
Experiment: Ability to inhibit [3H]DA reuptake at dopamine transporter from rat brain
Class boundaries, taken from values of Ki, are as follows: low group: < 200 nM; middle group: ≥ 200 nM and < 800 nM; high group: ≥ 800 nM

input: Exercise: read the entry COC(=O)C1C2CCC3CCC1N(C/C2=C\c1ccc(-c2ccc(OC)cc2)cc1)C3 (centres undefined) and state which class it falls under.
output: high group

input: Exercise: read the entry COC(=O)C1C2CCC3CCC1N(C/C2=C\c1ccc(-c2ccc(C)s2)cc1)C3 (centres undefined) and state which class it falls under.
output: middle group

input: Exercise: read the entry COC(=O)C1C2CCC3CCC1N(C/C2=C\c1ccc(-c2ccccc2)s1)C3 (centres undefined) and state which class it falls under.
output: low group

input: Exercise: read the entry CC(=O)OCC1C2CCC3CCC1N(C/C2=C\c1ccc(-c2ccccc2)cc1)C3 (centres undefined) and state which class it falls under.
output: low group

input: Exercise: read the entry O=C(OCC1C2CCC3CCC1N(C/C2=C\c1ccc(-c2ccc(Cl)c(Cl)c2)c(Cl)c1)C3)c1ccccc1 (centres undefined) and state which class it falls under.
output: high group

input: Exercise: read the entry COC(=O)C1C2CCC3CCC1N(C/C2=C\c1ccc(-c2cc(Cl)cc(Cl)c2)cc1)C3 (centres undefined) and state which class it falls under.
output: low group

input: Exercise: read the entry COC(=O)C1C2CCC3CCC1N(C/C2=C\c1ccc(-c2ccc(I)cc2)cc1)C3 (centres undefined) and state which class it falls under.
output: middle group

input: Exercise: read the entry COC(=O)C1C2CCC3CCC1N(C/C2=C\c1ccc(-c2ccc(C#N)cc2)cc1)C3 (centres undefined) and state which class it falls under.
output: low group

input: Exercise: read the entry OC[C@@H]1C2CCC3CCC1N(C/C2=C\c1ccc(-c2ccccc2)cc1)C3 (some centres undefined) and state which class it falls under.
output: high group
